species: Rattus norvegicus; assay: PK study was carried to determine AUC (area under curve) value in rat; type: ADME, organism-based; design: concentration or dose not given beside the values; conditions: in vivo
So I've got a bunch of molecules here, and I need their AUC values.
Write the number in ng·h/mL without appending the unit.

GET /value?item= CS(=O)(=O)O.C[C@]1(C(=O)N2CCOCC2)CO[C@H](c2nc(-c3ccc(F)cc3)c(-c3ccncc3)[nH]2)OC1 &field=AUC returns 628

The recorded AUC for COCCNc1nccc(-c2[nH]c([C@H]3OC[C@@](C)(C(=O)NCC4CC4)CO3)nc2-c2ccc(F)cc2)n1 is 121

# molecule CN(C)C(=O)[C@]1(C)CO[C@@H](c2nc(-c3ccc(F)cc3)c(-c3ccnc(NCC4CC4)n3)[nH]2)OC1 ; its AUC = 276

So for CCCNC(=O)[C@]1(C)CO[C@@H](c2nc(-c3ccc(F)cc3)c(-c3ccnc(NCCCOC)n3)[nH]2)OC1 , the logged AUC turned out to be 738

Measured AUC of CN(C)C(=O)[C@]1(C)CO[C@@H](c2nc(-c3ccc(F)cc3)c(-c3ccnc(NCc4ccccn4)n3)[nH]2)OC1 : 529

Reported AUC ( CCCNC(=O)[C@]1(C)CO[C@@H](c2nc(-c3ccc(F)cc3)c(-c3ccnc(NCc4ccco4)n3)[nH]2)OC1 ) = 257

The reported value for C=CCNc1nccc(-c2[nH]c([C@H]3OC[C@@](C)(C(=O)NCCOC)CO3)nc2-c2ccc(F)cc2)n1 in terms of AUC is 169
